Recorded pIC50 values for a group of compounds are listed next.
System: HIV-1 (H9/IIIB strain)
Test: Multiple round HIV-1 infection assay (Viking assay) in MT4-GFP cells
Format: cell-based
Conditions: HIV-1 replication in MT4-GFP cells; 50% NHS (normal human serum); read-out: Viking, IC50 (50% NHS)
Just so you know, pIC50 here is -log10 of the concentration in molar units; reply with that number alone.

Known results for compounds:
compound	result
CCCCCOC(=O)C(C)(C)NP(=O)(CO[C@H](C)Cn1cnc2c(N)ncnc21)NC(=O)c1ccc(C)cc1 (single isomer, unassigned) [Example 18B]	7.98
C[C@H](Cn1cnc2c(N)ncnc21)OCP(=O)(NC(=O)c1ccc(Cl)cc1)NC(C)(C)C(=O)OC1CCCC1 (single isomer, unassigned) [Example 7B]	7.87

# evaluate next
QUERY: // lookup pIC50 | system=HIV-1 (H9/IIIB strain) | key= CCCOC(=O)C(C)(C)NP(=O)(CO[C@H](C)Cn1cnc2c(N)ncnc21)NC(=O)c1ccc(Cl)cc1 (single isomer, unassigned) [Example 4B]
RESULT: 7.75

---

Test: Prodrug stability assay in bio-relevant media (FaSSIF with Pancreatin)
Type: in vitro ADME
Conditions: HPLC peak area of prodrug at 5 h divided by that at 0 h; 0.5 mg/mL Pancreatin in FaSSIF, 37° C.
We begin with a simple list: items and their reported GI Tract stability.
All answers are understood in %, so give the number only.

Here's what some known entries look like.
molecule	uom	GI Tract stability
CCCCCOC(=O)C(C)(C)NP(=O)(CO[C@H](C)Cn1cnc2c(N)ncnc21)NC(=O)c1ccc(C)cc1 (single isomer, unassigned) [Example 18B]	%	92.38
CC(C)OC(=O)C(C)(C)NP(=O)(CO[C@H](C)Cn1cnc2c(N)ncnc21)NC(=O)c1ccc(Cl)cc1 (single isomer, unassigned) [Example 1B]	%	95.48
CCCCCOC(=O)C(C)(C)NP(=O)(CO[C@H](C)Cn1cnc2c(N)ncnc21)NC(=O)c1ccc(F)cc1 (single isomer, unassigned) [Example 11A]	%	72.61
C[C@H](Cn1cnc2c(N)ncnc21)OCP(=O)(NC(=O)c1ccc(Cl)cc1)NC(C)(C)C(=O)OC1CCOCC1 (single isomer, unassigned) [Example 9B]	%	99.1
CCCCCOC(=O)C(C)(C)NP(=O)(CO[C@H](C)Cn1cnc2c(N)ncnc21)NC(=O)c1ccc(Cl)cc1 (single isomer, unassigned) [Example 3B]	%	75.98
C[C@H](Cn1cnc2c(N)ncnc21)OCP(=O)(NC(=O)c1ccc(Cl)cc1)NC(C)(C)C(=O)OC1CCC1 (single isomer, unassigned) [Example 6B]	%	90.33
CCCCCOC(=O)C(C)(C)NP(=O)(CO[C@H](C)Cn1cnc2c(N)ncnc21)NC(=O)c1cccs1 (single isomer, unassigned) [Example 15A]	%	95.44
CC(C)OC(=O)C(C)(C)NP(=O)(CO[C@H](C)Cn1cnc2c(N)ncnc21)NC(=O)c1ccc(F)cc1 (single isomer, unassigned) [Example 10B]	%	99.96
CCCOC(=O)C(C)(C)NP(=O)(CO[C@H](C)Cn1cnc2c(N)ncnc21)NC(=O)c1ccc(Cl)cc1 (single isomer, unassigned) [Example 4B]	%	84.76

# context switch: different molecule, same GI Tract stability
QUERY: Would you mind telling me what GI Tract stability value was observed for CCCCCOC(=O)C(C)(C)NP(=O)(CO[C@H](C)Cn1cnc2c(N)ncnc21)NC(=O)c1ccc(Cl)cc1 (single isomer, unassigned) [Example 3A] ?
RESULT: 99.9

---

Listed here: items and their measured IC50.
System: HIV-1 (H9/IIIB strain)
Experiment: Multiple round HIV-1 infection assay (Viking assay) in MT4-GFP cells
Type: cell-based
Conditions: HIV-1 replication in MT4-GFP cells; 50% NHS (normal human serum); read-out: Viking, IC50 (50% NHS)

Below, 5 molecules whose answers are already recorded.
molecule	assayed system	IC50
CCCCCOC(=O)C(C)(C)NP(=O)(CO[C@H](C)Cn1cnc2c(N)ncnc21)NC(=O)c1cccs1 (single isomer, unassigned) [Example 15B]	HIV-1 (H9/IIIB strain)	29.8 nM
CC(C)OC(=O)C(C)(C)NP(=O)(CO[C@H](C)Cn1cnc2c(N)ncnc21)NC(=O)c1cnccn1 (single isomer, unassigned) [Example 14A]	HIV-1 (H9/IIIB strain)	1570 nM
CCOCCOC(=O)C(C)(C)NP(=O)(CO[C@H](C)Cn1cnc2c(N)ncnc21)NC(=O)c1ccc(Cl)cc1 (single isomer, unassigned) [Example 8A]	HIV-1 (H9/IIIB strain)	133 nM
CCCCCOC(=O)C(C)(C)NP(=O)(CO[C@H](C)Cn1cnc2c(N)ncnc21)NC(=O)c1ccc(C)cc1 (single isomer, unassigned) [Example 18A]	HIV-1 (H9/IIIB strain)	35.4 nM
CCOCCOC(=O)C(C)(C)NP(=O)(CO[C@H](C)Cn1cnc2c(N)ncnc21)NC(=O)c1ccccc1Cl (single isomer, unassigned) [Example 12B]	HIV-1 (H9/IIIB strain)	83.4 nM

Please look at the following molecule next.
QUERY: Name the reported IC50 value associated with the molecule COc1ccc(C(=O)NP(=O)(CO[C@H](C)Cn2cnc3c(N)ncnc32)NC(C)(C)C(=O)OC(C)C)cc1 (single isomer, unassigned) [Example 17B]
RESULT: 390 nM

---

Test system: HIV-1 (H9/IIIB strain)
Test: Multiple round HIV-1 infection assay (Viking assay) in MT4-GFP cells
Format: cell-based
Conditions: HIV-1 replication in MT4-GFP cells; 50% NHS (normal human serum); read-out: Viking, IC50 (50% NHS)
Listing of entries alongside the reported pIC50.
As a rule, pIC50 stands for the negative log10 of the concentration, concentration in M.

Illustrative cases are given below, each with its answer.
compound	pIC50
CCCCCOC(=O)C(C)(C)NP(=O)(CO[C@H](C)Cn1cnc2c(N)ncnc21)NC(=O)c1ccc(Cl)cc1 (single isomer, unassigned) [Example 3A]	7.48
CC(C)COC(=O)C(C)(C)NP(=O)(CO[C@H](C)Cn1cnc2c(N)ncnc21)NC(=O)c1ccc(Cl)cc1 (single isomer, unassigned) [Example 5B]	7.61
C[C@H](Cn1cnc2c(N)ncnc21)OCP(=O)(NC(=O)c1ccc(Cl)cc1)NC(C)(C)C(=O)OC1CCOCC1 (single isomer, unassigned) [Example 9B]	7.13
CC(C)COC(=O)C(C)(C)NP(=O)(CO[C@H](C)Cn1cnc2c(N)ncnc21)NC(=O)c1ccc(Cl)cc1 (single isomer, unassigned) [Example 5A]	7.10
C[C@H](Cn1cnc2c(N)ncnc21)OCP(=O)(NC(=O)c1ccc(Cl)cc1)NC(C)(C)C(=O)OC1CCC1 (single isomer, unassigned) [Example 6A]	7.43

QUERY: pIC50 for CCCOC(=O)C(C)(C)NP(=O)(CO[C@H](C)Cn1cnc2c(N)ncnc21)NC(=O)c1ccc(Cl)cc1 (single isomer, unassigned) [Example 4A] ?
RESULT: 7.24

QUERY: Next entry: CC(C)OC(=O)C(C)(C)NP(=O)(CO[C@H](C)Cn1cnc2c(N)ncnc21)NC(=O)c1ccc(F)cc1 (single isomer, unassigned) [Example 10B]
RESULT: 7.05

QUERY: What do you have for C[C@H](Cn1cnc2c(N)ncnc21)OCP(=O)(NC(=O)c1ccc(Cl)cc1)NC(C)(C)C(=O)OC1CCOCC1 (single isomer, unassigned) [Example 9A] ?
RESULT: 5.84

QUERY: Entry CCCCCOC(=O)C(C)(C)NP(=O)(CO[C@H](C)Cn1cnc2c(N)ncnc21)NC(=O)c1ccc(F)cc1 (single isomer, unassigned) [Example 11A] please
RESULT: 7.82

---

molecules and their reported IC50
System: HIV-1 (H9/IIIB strain)
Assay: Multiple round HIV-1 infection assay (Viking assay) in MT4-GFP cells
Assay type: cell-based
Conditions: HIV-1 replication in MT4-GFP cells; 50% NHS (normal human serum); read-out: Viking, IC50 (50% NHS)
The reply should be a number in nM, with the unit left off.

molecule	uom	IC50
CCCCCOC(=O)C(C)(C)NP(=O)(CO[C@H](C)Cn1cnc2c(N)ncnc21)NC(=O)c1ccc(Cl)cc1 (single isomer, unassigned) [Example 3B]	nM	10.9
CC(C)OC(=O)C(C)(C)NP(=O)(CO[C@H](C)Cn1cnc2c(N)ncnc21)NC(=O)c1ccncn1 (single isomer, unassigned) [Example 13B]	nM	480
C[C@H](Cn1cnc2c(N)ncnc21)OCP(=O)(NC(=O)c1ccc(Cl)cc1)NC(C)(C)C(=O)OC1CCCC1 (single isomer, unassigned) [Example 7A]	nM	31.7

QUERY: What does the record list as IC50 for CCCCCOC(=O)C(C)(C)NP(=O)(CO[C@H](C)Cn1cnc2c(N)ncnc21)NC(=O)c1ccc(F)cc1 (single isomer, unassigned) [Example 11B] ?
RESULT: 30.8
